# System: corn (Zea mays)
# PROTOCOL_DESCRIPTION: Test A postemergence, corn
# Format: in vivo
# TEST_CONTEXT: Postemergence, 500 g ai/ha; visual injury vs untreated controls after approx. 10 days; 0 to 100 scale (0 no effect, 100 complete control)
# reported Corn plant response rating; entries follow
Just the number, please.

{"columns": ["COMPOUND", "TEST_SYSTEM", "OBSERVED_VALUE"],
 "data": [
  ["Cc1cc(C)c(-n2nccc(Cl)c2=O)cc1NS(=O)(=O)C(F)(F)F", "corn (Zea mays)", 40]
]}

Enquiry: Please supply the value of reported Corn plant response rating for the item Cc1cc(C)c(C2=NOC3CCCCC23)cc1NS(=O)(=O)C(F)(F)F (racemic) [Compound 125]
Return: 60

Enquiry: Please supply the value of reported Corn plant response rating for the item COC1CCN(C(=O)c2cc(NS(=O)(=O)C(F)(F)F)c(C)c(F)c2C)CC1
Return: 10

Enquiry: Please supply the value of reported Corn plant response rating for the item CC(=O)OCN(c1cc(C2=NOC3(CCCC3)C2)c(C)cc1C)S(=O)(=O)C(F)(F)F
Return: 70

###

# System: Pigweed, Palmer (palmer amaranth, palmer pigweed, Amaranthus palmeri)
# PROTOCOL_DESCRIPTION: Test A1 preemergence, Pigweed, Palmer
# Assay type: in vivo
# TEST_CONTEXT: 31 g ai/ha, 0 to 100 scale (0 no effect, 100 complete control)
Definition: the class of an entry is the range in lower: < 20; middle: ≥ 20 and < 70; upper: ≥ 70 that contains its Plant response rating, Pigweed, Palmer.

{"columns": ["COMPOUND", "CATEGORY"],
 "data": [
  ["Cc1c(C(=O)N2CCCCC2)cc(NS(=O)(=O)C(F)(F)F)c(Cl)c1F [Compound 333]", "upper"],
  ["COC1CCN(C(=O)c2cc(N(COC(=O)C(C)(C)C)S(=O)(=O)C(F)(F)F)c(C)c(C)c2C)CC1 [Compound 370]", "middle"],
  ["Cc1cc(C)c(N(COC(=O)N(C)C)S(=O)(=O)C(F)(F)F)cc1C1=NOC2CCCC12 (stereo not shown) [Compound 317]", "lower"],
  ["Cc1cc(C)c(N2CCC3(CCC(C)CC3)C2=O)cc1NS(=O)(=O)C(F)(F)F (stereo not shown) [Compound 402]", "middle"]
]}

Enquiry: Which class is correct for the following compound? Cc1cc(C)c(N(COC(=O)C(C)(C)C)S(=O)(=O)C(F)(F)F)cc1C(=O)N1CCC(c2ccccc2)CC1 [Compound 364]
Return: lower

Enquiry: Which class is correct for the following compound? C#CCN(C)C(=O)c1cc(NS(=O)(=O)C(F)(F)F)c(C)c(C)c1C [Compound 368]
Return: upper

Enquiry: Which class is correct for the following compound? CCc1cc(C)c(C2=NOC3(CCCC3)C2)cc1NS(=O)(=O)C(F)(F)F [Compound 311]
Return: middle

Enquiry: Which class is correct for the following compound? CCOC1CC(c2cc(NS(=O)(=O)C(F)(F)F)c(C)cc2C)=NO1 (stereo not shown) [Compound 318]
Return: upper

Enquiry: Which class is correct for the following compound? Cc1cc(C(F)(F)F)c(C2=NOC3CCCC23)cc1NS(=O)(=O)C(F)(F)F (stereo not shown) [Compound 306]
Return: middle

Enquiry: Which class is correct for the following compound? Cc1c(NS(=O)(=O)C(F)(F)F)cc(C2=NOC3CCCC23)c(C)c1C (stereo not shown) [Compound 335]
Return: upper

Enquiry: Which class is correct for the following compound? Cc1c(NS(=O)(=O)C(F)(F)F)cc(C(=O)N2CCC(C)CC2)c(C)c1C [Compound 366]
Return: upper

Enquiry: Which class is correct for the following compound? Cc1c(NS(=O)(=O)C(F)(F)F)cc(C(=O)N2CCC(F)CC2)c(C)c1C [Compound 358]
Return: upper

Enquiry: Which class is correct for the following compound? Cc1cc(C)c(N(COC(=O)C(C)(C)C)S(=O)(=O)C(F)(F)F)cc1N1CCC2(CCC(C(F)(F)F)CC2)C1=O (stereo not shown) [Compound 403]
Return: lower

Enquiry: Which class is correct for the following compound? CCCCOC1CC(c2cc(NS(=O)(=O)C(F)(F)F)c(C)cc2C)=NO1 (stereo not shown) [Compound 323]
Return: upper

Enquiry: Which class is correct for the following compound? CCOC(=O)N(c1cc(C(=O)N2C[C@@H](C)O[C@H](C)C2)c(C)c(C)c1C)S(=O)(=O)C(F)(F)F (relative stereo) [Compound 374]
Return: middle

Enquiry: Which class is correct for the following compound? Cc1cc(C)c(N(COC(=O)OC(C)(C)C)S(=O)(=O)C(F)(F)F)cc1C1=NOC2CCCC12 (stereo not shown) [Compound 316]
Return: middle

Enquiry: Which class is correct for the following compound? Cc1c(C(=O)N2CCOCC2)cc(NS(=O)(=O)C(F)(F)F)c(Cl)c1F [Compound 321]
Return: upper

Enquiry: Which class is correct for the following compound? Cc1c(C(=O)N2C[C@@H](C)O[C@@H](C)C2)cc(N(COC(=O)C(C)(C)C)S(=O)(=O)C(F)(F)F)c(C)c1C [Compound 331]
Return: lower
